test.target: wild-type HIV-1 protease (Human immunodeficiency virus type 1 group M subtype B, UniProt P03369)
attribute.measured: Ki (nM)
All answers are understood in nM, so give the number only.

Q: Can you share its Ki? I mean this compound: CC[C@H](C)CN(C[C@@H](O)[C@H](Cc1ccccc1)NC(=O)[C@@H](NC(C)=O)[C@@H](C)CC)S(=O)(=O)c1ccc2ncsc2c1 [AG-23]
Result: 0.021

###

test.target: HIV-1 protease M2 (D30N, N88D) (Human immunodeficiency virus type 1 group M subtype B, UniProt P03369, D520N/N578D)
measurement.protocol: FRET enzyme inhibition assay, M2 variant
attribute.measured: Ki (nM)
All answers are understood in nM, so give the number only.

Q: Can you share its Ki? I mean this molecule: `CC[C@H](C)CN(C[C@@H](O)[C@H](Cc1ccccc1)NC(=O)[C@@H](NC(C)=O)[C@@H](C)CC)S(=O)(=O)c1ccc2ncsc2c1`
Result: 0.028
